- Assay Info: cancer stem cell viability inhibitors, primary screen, luminescence (AID 2717)
- Reported Conditions: cancer stem cell-like cells viability, at 7.5 µM
The whole screen tested about 300,000 compounds, of which about 3,200 (1.1%) were called active. Rule as the data show it: active = inhibition above about 75%; inconclusive = no clear call, values can overlap the other calls; inactive = below that; tested in HMLE shEcad cells. Only a selection was taken, and actives are over-represented in it overall.
Pick from active, inactive when you respond.

// query Test call for this molecule, please: Cc1[nH]n(-c2ccccc2)c(=O)c1/C=N/NC(=O)c1ccoc1C
// result inactive

// query Just curious, what result did O=c1[nH]n(-c2ccc([N+](=O)[O-])cc2)c(=O)c2ccccc12 get here?
// result inactive

// query Dear all, I need the recorded test outcome for O=C(c1cccc(Cl)c1)N1CCN(Cc2ccccc2)CC1 , thank you.
// result inactive

// query Query: recorded result category for O=C(CS(=O)(=O)c1cn(Cc2cccc(F)c2)c2ccccc12)N1CCCCC1 in this test
// result inactive

// query Please indicate how the test categorized Cc1ccc(NC(=O)c2cccc(S(=O)(=O)N3CCCc4ccccc43)c2)nc1 .
// result inactive

// query Status in this test for COc1ccc(-c2cc(C(F)(F)F)nc(S(C)(=O)=O)n2)cc1OC ?
// result active

// query Field: outcome | Entry: NC(=O)CC(NC(=O)Cc1cccc2ccccc12)c1ccc(NCc2cc(F)ccc2F)c([N+](=O)[O-])c1 (configuration not stated)
// result inactive

// query Test call for this molecule, please: O=C(COC(=O)c1ccc(F)cc1)NCC1COc2ccccc2O1 (configuration not stated)
// result inactive

// query // param item: NC(=O)CC(NC(=O)Cc1ccc(Br)cc1)c1ccc(NC2CC3CCC2C3)c([N+](=O)[O-])c1 (configuration not stated) ; yields the recorded call
// result active

// query # lookup: test call for COCC(=O)Nc1c(I)c(C(=O)NCC(O)CO)c(I)c(C(=O)N(C)CC(O)CO)c1I (configuration not stated)
// result inactive

// query So what was the verdict on COc1ccc2c(CC(=O)NNC(=O)c3ccccc3F)coc2c1 in this test?
// result inactive

// query # lookup: test call for Oc1ccc(Br)cc1/C=N/Nc1ccccn1
// result active

// query Entry CCCc1cc(=O)[nH]c(SCC(=O)Nc2ccc(S(=O)(=O)N3CCCC3)cc2)n1 : call = ?
// result inactive

// query For COc1ccc(Cc2nnc(N/N=C/c3ccccc3O)[nH]c2=O)cc1OC , which call appears in the assay record?
// result active

// query I'd appreciate the recorded outcome for CC(C)c1ccc(Cc2nnc(NCCCO)[nH]c2=O)cc1 from this test.
// result inactive

// query Assay outcome for CC(C)COc1ccc(C(=O)NNC(=O)CCC(=O)c2cccs2)cc1 : what was it?
// result inactive

// query Given Cc1ccc(NC(=O)C2CCC(C(C)(C)C)CC2)cc1S(=O)(=O)N1CCOCC1 (configuration not stated) , state the outcome it received in this test.
// result inactive

// query Record request — test call for O=C1CC(c2ccccc2)=NN1c1ccc([N+](=O)[O-])cc1
// result active

// query Tell me the assay call for O=C(COc1cccnc1[N+](=O)[O-])Nc1ccc(Cl)cc1F please.
// result inactive

// query Dear colleague, could you share the recorded outcome for O=C(NNC(=O)c1cccc(S(=O)(=O)Nc2ccc(Cl)cc2)c1)c1ccc(=O)[nH]c1 when you have a moment?
// result inactive

// query Test call for this molecule, please: O=c1cc(N2CCCCC2)c(-c2ccccc2)nn1Cc1cccc(F)c1
// result active

// query Which outcome was assigned to CN(C(=O)CSc1cccc[n+]1[O-])C1CCCCC1 in this test?
// result inactive
